- System: Peptostreptococcus anaerobicus
- assay_summary: MIC vs. panel of anaerobes
- Format: cell-based
- cond: Peptostreptococcus anaerobicus; read-out: MIC
Items are presented alongside their recorded MIC.

For orientation, consider the following solved cases.
[O-][N+]1=C(c2ccccc2)C2=NCCN2c2cc(F)c(F)cc21 = 12.5 µg/mL
Cc1ncc([N+](=O)[O-])n1CCO [Metronidazole, reference compound] = > 100 µg/mL
CC(=O)N1CCN(c2ccc3c(c2)N2CCN=C2C(c2ccccc2)=[N+]3[O-])CC1 = 12.5 µg/mL
[O-][N+]1=C(c2ccccc2)C2=NCCN2c2cc(N3CCN(c4ccccc4)CC3)ccc21 = > 100 µg/mL
[O-][N+]1=C(c2ccccc2)C2=NCCN2c2nc(Cl)ccc21 = 50 µg/mL

[in] Checklist item: MIC tested on Peptostreptococcus anaerobicus, entry [O-][N+]1=C(c2ccccc2)C2=NCCN2c2cc(F)ccc21 , value?
[out] 25 µg/mL

[in] Now try [O-][N+]1=C(c2ccccc2)C2=NCCN2c2cc(N3CCN(c4ccccc4)CC3)c(F)cc21 .
[out] > 100 µg/mL

[in] Now try [O-][N+]1=C(c2ccccc2)C2=NCCN2c2cc(N3CCN(Cc4ccccc4)CC3)ccc21 .
[out] 100 µg/mL

* * *

- Tested on: B. fragilis WS-1
- assay_summary: MIC/MBC broth microdilution, strain E
- Type: cell-based, Bacteroides fragilis
- cond: Bacteroides fragilis, WS1, 48 h, 99.9% reduction in viable count after 48 h
quantity_measured: MBC (µg/mL)
Respond numerically; units are µg/mL and should not be typed.

CC(=O)N1CCN(c2ccc3c(c2)N2CCN=C2C(c2ccccc2)=[N+]3[O-])CC1 = 6.2

[in] What does the record list as MBC for [O-][N+]1=C(c2ccccc2)C2=NCCN2c2cc(F)c(F)cc21 ?
[out] 0.6

[in] Now try [O-][N+]1=C(c2ccccc2)C2=NCCN2c2cc(N3CCN(Cc4ccccc4)CC3)ccc21 .
[out] 25

[in] Now try [O-][N+]1=C(c2ccccc2)C2=NCCN2c2cc(F)ccc21 .
[out] 3.1

[in] Now try [O-][N+]1=C(c2ccccc2)C2=NCCN2c2nc(Cl)ccc21 .
[out] 6.2

[in] Now try CN1CCN(c2ccc3c(c2)N2CCN=C2C(c2ccccc2)=[N+]3[O-])CC1 .
[out] 6.2

* * *

Items are presented alongside their recorded MIC.
- Tested on: B. fragilis NCTC 10581
- assay_summary: MIC/MBC broth microdilution, strain A
- Assay type: cell-based
- cond: Bacteroides fragilis, NCTC10581, 48 h, 48 h, 37° C., anaerobic
Respond numerically; units are µg/mL and should not be typed.

[O-][N+]1=C(c2ccccc2)C2=NCCN2c2cc(F)ccc21 = 3.1
CN1CCN(c2ccc3c(c2)N2CCN=C2C(c2ccccc2)=[N+]3[O-])CC1 = 3.1
[O-][N+]1=C(c2ccccc2)C2=NCCN2c2cc(N3CCN(c4ccccc4)CC3)c(F)cc21 = 3.1

// next entry
[in] Checklist item: MIC tested on B. fragilis NCTC 10581, entry CN1CCN(c2ccc3c(n2)N2CCN=C2C(c2ccccc2)=[N+]3[O-])CC1 , value?
[out] 0.8

* * *

- Tested on: Bacteroides melanogenicus NCTC 9336
- assay_summary: MIC vs. panel of anaerobes
- Format: cell-based
- cond: NCTC9336; Bacteroides melanogenicus NCTC 9336; read-out: MIC
quantity_measured: MIC (µg/mL)
Respond numerically; units are µg/mL and should not be typed.

[in] What does the record list as MIC for [O-][N+]1=C(c2ccccc2)C2=NCCN2c2cc(F)c(F)cc21 ?
[out] 6.2

[in] Now try [O-][N+]1=C(c2ccccc2)C2=NCCN2c2cc(F)ccc21 .
[out] 25

[in] Now try [O-][N+]1=C(c2ccccc2)C2=NCCN2c2nc(Cl)ccc21 .
[out] 100

[in] Now try CC(=O)N1CCN(c2ccc3c(c2)N2CCN=C2C(c2ccccc2)=[N+]3[O-])CC1 .
[out] 6.2

[in] Now try [O-][N+]1=C(c2ccccc2)C2=NCCN2c2cc(N3CCN(Cc4ccccc4)CC3)ccc21 .
[out] 50
